Attribute: IC50
system: Hs822T; assay: Proliferation assay, CellTiter-Glo, 72 hour; format: cell-based; details: Ewing's sarcoma cell line, read-out: Inhibition of proliferation, Hs822T

Below: 3 molecules and their reported IC50.
Cc1ccc(Nc2ncc(C)c(-c3c[nH]c4ccccc34)n2)cc1NC(=O)c1ccc(NC(=O)/C=C/CN(C)C)cc1; < 500 nM
CN1CC[C@H](c2c(O)cc(O)c3c(=O)cc(-c4ccccc4Cl)oc23)[C@H](O)C1 [Flavopiridol, flavopiridol, reference compound]; > 5000 nM
CN(C)C/C=C/C(=O)Nc1ccc(C(=O)Nc2cccc(Nc3ncc(Cl)c(-c4c[nH]c5ccccc45)n3)c2)cc1; < 500 nM

GET /values?readout=IC50&item= CC(C)[C@]12O[C@H]1[C@@H]1O[C@]13[C@]1(O[C@H]1C[C@H]1C4=C(CC[C@@]13C)C(=O)OC4)[C@@H]2O [Triptolide, triptolide, reference compound] 500 to 5000 nM

---

// reported IC50 for each item listed
biological target: UniProtKB Q16584; test: Life Technologies LanthaScreen Eu kinase assay, MLK3; assay type: binding; settings: read-out: Calculated IC50, MLK3
Sequence (Q16584 whole entry): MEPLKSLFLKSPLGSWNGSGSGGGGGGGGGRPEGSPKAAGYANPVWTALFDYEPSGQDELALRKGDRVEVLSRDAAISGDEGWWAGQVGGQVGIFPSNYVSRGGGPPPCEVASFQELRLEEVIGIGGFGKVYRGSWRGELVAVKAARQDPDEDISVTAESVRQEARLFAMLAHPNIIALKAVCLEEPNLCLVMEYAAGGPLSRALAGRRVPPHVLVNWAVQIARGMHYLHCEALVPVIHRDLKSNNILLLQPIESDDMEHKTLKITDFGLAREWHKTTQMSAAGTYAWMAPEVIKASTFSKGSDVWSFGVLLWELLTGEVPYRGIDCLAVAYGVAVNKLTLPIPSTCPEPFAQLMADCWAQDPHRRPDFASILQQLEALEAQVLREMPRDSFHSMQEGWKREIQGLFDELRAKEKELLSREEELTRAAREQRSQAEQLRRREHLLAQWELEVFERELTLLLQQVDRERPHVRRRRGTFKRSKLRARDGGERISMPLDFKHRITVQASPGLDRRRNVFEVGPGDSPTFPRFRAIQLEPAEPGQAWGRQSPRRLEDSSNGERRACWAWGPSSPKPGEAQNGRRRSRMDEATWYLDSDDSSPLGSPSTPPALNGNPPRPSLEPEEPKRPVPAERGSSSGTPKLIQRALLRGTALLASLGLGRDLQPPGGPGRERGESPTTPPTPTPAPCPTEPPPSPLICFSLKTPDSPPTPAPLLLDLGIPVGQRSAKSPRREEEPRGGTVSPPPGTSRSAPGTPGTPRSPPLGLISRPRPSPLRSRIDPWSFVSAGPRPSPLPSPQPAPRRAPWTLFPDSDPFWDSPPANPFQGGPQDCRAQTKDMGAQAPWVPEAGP

CN(C)C/C=C/C(=O)Nc1ccc(C(=O)Nc2cccc(Nc3ncc(Cl)c(-c4c[nH]c5ccccc45)n3)c2)cc1 [Formula I-23]; < 100 nM

Would you kindly look at the next entry?
Please give the measured IC50 for this compound: CN(C)C/C=C/C(=O)Nc1ccc(C(=O)Nc2cccc(Nc3ncc(C#N)c(-c4c[nH]c5ccccc45)n3)c2)cc1 [Formula I-53] < 100 nM

---

biological target: JNK2 (MAPK9) (Homo sapiens (Human), UniProt P45984)
Sequence (P45984 whole entry): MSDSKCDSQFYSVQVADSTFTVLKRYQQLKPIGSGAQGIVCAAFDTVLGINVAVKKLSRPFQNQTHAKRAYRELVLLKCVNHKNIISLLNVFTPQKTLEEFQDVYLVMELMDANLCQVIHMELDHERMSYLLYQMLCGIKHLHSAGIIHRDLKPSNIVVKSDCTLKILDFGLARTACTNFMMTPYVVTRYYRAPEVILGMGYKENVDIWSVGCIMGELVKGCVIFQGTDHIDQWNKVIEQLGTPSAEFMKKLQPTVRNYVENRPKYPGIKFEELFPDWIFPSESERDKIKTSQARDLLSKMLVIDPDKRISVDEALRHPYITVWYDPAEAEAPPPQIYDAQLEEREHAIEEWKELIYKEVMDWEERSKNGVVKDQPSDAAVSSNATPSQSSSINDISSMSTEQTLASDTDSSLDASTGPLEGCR
measure_name: IC50

Any idea what IC50 was measured for CN(C)C/C=C/C(=O)Nc1ccc(C(=O)Nc2cccc(Nc3ncc(Cl)c(-c4c[nH]c5ccccc45)n3)c2)cc1 ? 100 to 1000 nM

---

test system: RD-ES; experiment: Proliferation assay, CellTiter-Glo, 72 hour; assay type: cell-based; details: Ewing's sarcoma cell line, read-out: Inhibition of proliferation, RD-ES
pIC50: −log10 of the molar value.
Measured pIC50, listed per entry for reference.

Cc1ccc(Nc2ncc(C)c(-c3c[nH]c4ccccc34)n2)cc1NC(=O)c1ccc(NC(=O)/C=C/CN(C)C)cc1; > 6.30

Next compound, pIC50 to be filled in.
Fill in: pIC50 of CN(C)C/C=C/C(=O)Nc1ccc(C(=O)Nc2cccc(Nc3ncc(Cl)c(-c4c[nH]c5ccccc45)n3)c2)cc1 is ___ > 6.30

---

Parameter pIC50: see the listing below.
biological target: CDK5/p25 (Homo sapiens (Human)); assay: Life Technologies Z'-Lyte kinase assay, CDK5/p25; conditions: read-out: Calculated IC50, CDK5/p25
Sequence (Q00535 whole entry): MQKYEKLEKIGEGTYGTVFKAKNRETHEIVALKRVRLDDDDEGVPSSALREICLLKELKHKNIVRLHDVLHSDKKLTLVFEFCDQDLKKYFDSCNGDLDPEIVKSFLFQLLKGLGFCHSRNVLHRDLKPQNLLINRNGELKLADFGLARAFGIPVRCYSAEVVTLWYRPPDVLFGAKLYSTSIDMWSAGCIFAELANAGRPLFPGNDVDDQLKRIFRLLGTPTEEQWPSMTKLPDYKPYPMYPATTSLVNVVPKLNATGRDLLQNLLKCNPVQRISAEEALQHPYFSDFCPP
Sequence (Q15078 99-307 partner): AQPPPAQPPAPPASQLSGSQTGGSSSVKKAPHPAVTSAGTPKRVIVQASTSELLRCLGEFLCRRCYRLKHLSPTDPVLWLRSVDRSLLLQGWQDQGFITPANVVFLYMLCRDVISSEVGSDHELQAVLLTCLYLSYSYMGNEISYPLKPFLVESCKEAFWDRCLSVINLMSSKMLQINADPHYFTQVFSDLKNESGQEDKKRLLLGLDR
pIC50: −log10 of the molar value.

CN(C)C/C=C/C(=O)Nc1ccc(C(=O)Nc2cccc(Nc3ncc(Cl)c(-c4c[nH]c5ccccc45)n3)c2)cc1; 6.00 to 7.00

Switching to the query record.
Please provide the recorded pIC50 for CN(C)C/C=C/C(=O)Nc1ccc(C(=O)Nc2cccc(Nc3ncc(C#N)c(-c4c[nH]c5ccccc45)n3)c2)cc1 , tested on CDK5/p25 (Homo sapiens (Human)). 6.00 to 7.00

---

molecular target: CDK1/cyclin B (Homo sapiens (Human), UniProt P06493); assay: Life Technologies Z'-Lyte kinase assay, CDK1; assay type: biochemical; conditions: read-out: Calculated IC50, CDK1/cyclin B
Sequence (P06493 whole entry): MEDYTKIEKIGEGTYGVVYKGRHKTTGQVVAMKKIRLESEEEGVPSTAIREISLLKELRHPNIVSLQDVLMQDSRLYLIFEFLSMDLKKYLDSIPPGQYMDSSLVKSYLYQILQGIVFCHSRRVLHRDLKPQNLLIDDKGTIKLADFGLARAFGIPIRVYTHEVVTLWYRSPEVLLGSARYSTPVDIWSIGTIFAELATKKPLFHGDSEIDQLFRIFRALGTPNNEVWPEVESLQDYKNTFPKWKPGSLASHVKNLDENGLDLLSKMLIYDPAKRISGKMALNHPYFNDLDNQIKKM
Sequence (P14635 whole entry partner): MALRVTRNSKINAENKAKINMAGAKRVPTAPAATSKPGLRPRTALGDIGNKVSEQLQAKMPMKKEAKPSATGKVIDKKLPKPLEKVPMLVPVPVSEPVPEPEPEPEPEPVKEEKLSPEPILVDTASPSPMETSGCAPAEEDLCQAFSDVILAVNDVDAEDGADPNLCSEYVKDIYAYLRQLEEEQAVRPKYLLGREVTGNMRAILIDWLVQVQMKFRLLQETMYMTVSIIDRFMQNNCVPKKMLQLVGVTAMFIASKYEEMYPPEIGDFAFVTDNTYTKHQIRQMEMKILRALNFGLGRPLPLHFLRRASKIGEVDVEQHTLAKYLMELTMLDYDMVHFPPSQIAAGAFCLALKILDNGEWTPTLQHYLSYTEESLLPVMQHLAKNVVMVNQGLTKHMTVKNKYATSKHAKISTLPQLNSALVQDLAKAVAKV
pIC50: −log10 of the molar value.
measure_name: pIC50

Endpoint output: pIC50 of CN(C)C/C=C/C(=O)Nc1ccc(C(=O)Nc2cccc(Nc3ncc(Cl)c(-c4c[nH]c5ccccc45)n3)c2)cc1 [Formula I-23] . Value? 6.00 to 7.00
